TEST SUMMARY: Glass transition temperature (Tg) by modulated differential scanning calorimetry (mDSC)
Format: physicochemical
PARTICULARS: mDSC, second heating cycle (intrinsic Tg in dry state); precipitated salts of Compound 1
Measured Tg (° C.) Second heating, listed per entry.
Provide only the numeric value, understood in °C.

Tg (° C.) Second heating measured on CC(C)c1nc(CN(C)C(=O)N[C@@H](CCN2CCOCC2)C(=O)N[C@H](CC[C@H](Cc2ccccc2)NC(=O)OCc2cncs2)Cc2ccccc2)cs1 [citrate] = 60

Entry CC(C)c1nc(CN(C)C(=O)N[C@@H](CCN2CCOCC2)C(=O)N[C@H](CC[C@H](Cc2ccccc2)NC(=O)OCc2cncs2)Cc2ccccc2)cs1.O=C(O)c1cc(O)ccc1O [gentisate] , Tg (° C.) Second heating reported as 62

* * *

TEST SUMMARY: Hygroscopicity at room temperature (weight gain and visual phase transition after 24 hours at controlled RH)
Assay type: physicochemical
PARTICULARS: 75% RH, room temperature, 24 hours, visual observation
MEASUREMENT TYPE: Phase transition

MOLECULE	MEASUREMENT
O=C(O)CCC(=O)C(=O)O [ketoglutarate]	Yes
CC(C)c1nc(CN(C)C(=O)N[C@@H](CCN2CCOCC2)C(=O)N[C@H](CC[C@H](Cc2ccccc2)NC(=O)OCc2cncs2)Cc2ccccc2)cs1.O=C(O)C(=O)O.O=C(O)C(=O)O [oxalate]	Yes
O=S(=O)(O)O [sulfate]	Yes
CC(C)c1nc(CN(C)C(=O)N[C@@H](CCN2CCOCC2)C(=O)N[C@H](CC[C@H](Cc2ccccc2)NC(=O)OCc2cncs2)Cc2ccccc2)cs1.O=C(O)CC(=O)O [malonate]	Yes

* * *

TEST SUMMARY: Glass transition temperature (Tg) by modulated differential scanning calorimetry (mDSC)
Type: physicochemical
PARTICULARS: mDSC, second heating cycle (intrinsic Tg in dry state); precipitated salts of Compound 1
Each record here notes measured Tg (° C.) Second heating.
Field: numeric (°C). Do not append units.

MOLECULE	Tg (° C.) Second heating / °C
CC(C)c1nc(CN(C)C(=O)N[C@@H](CCN2CCOCC2)C(=O)N[C@H](CC[C@H](Cc2ccccc2)NC(=O)OCc2cncs2)Cc2ccccc2)cs1.O=P(O)(O)O [phosphate]	69
CC(C)c1nc(CN(C)C(=O)N[C@@H](CCN2CCOCC2)C(=O)N[C@H](CC[C@H](Cc2ccccc2)NC(=O)OCc2cncs2)Cc2ccccc2)cs1.O=C(O)C(=O)O.O=C(O)C(=O)O [oxalate]	46
CC(C)c1nc(CN(C)C(=O)N[C@@H](CCN2CCOCC2)C(=O)N[C@H](CC[C@H](Cc2ccccc2)NC(=O)OCc2cncs2)Cc2ccccc2)cs1.CC(O)C(=O)O [lactate]	17
CC(C)c1nc(CN(C)C(=O)N[C@@H](CCN2CCOCC2)C(=O)N[C@H](CC[C@H](Cc2ccccc2)NC(=O)OCc2cncs2)Cc2ccccc2)cs1.CC1(C)C2CCC1(CS(=O)(=O)O)C(=O)C2 [camphorosulfonate]	66
O=S(=O)(O)O [sulfate]	71
CC(C)c1nc(CN(C)C(=O)N[C@@H](CCN2CCOCC2)C(=O)N[C@H](CC[C@H](Cc2ccccc2)NC(=O)OCc2cncs2)Cc2ccccc2)cs1.O=C1NS(=O)(=O)c2ccccc21 [saccharinate]	56
CC(C)c1nc(CN(C)C(=O)N[C@@H](CCN2CCOCC2)C(=O)N[C@H](CC[C@H](Cc2ccccc2)NC(=O)OCc2cncs2)Cc2ccccc2)cs1.O=C(O)CNC(=O)c1ccccc1 [hippurate]	44
CC(C)c1nc(CN(C)C(=O)N[C@@H](CCN2CCOCC2)C(=O)N[C@H](CC[C@H](Cc2ccccc2)NC(=O)OCc2cncs2)Cc2ccccc2)cs1.O=C(O)CC(=O)O [malonate]	36

Consider the additional molecule presented here.
For this molecule ( CC(C)c1nc(CN(C)C(=O)N[C@@H](CCN2CCOCC2)C(=O)N[C@H](CC[C@H](Cc2ccccc2)NC(=O)OCc2cncs2)Cc2ccccc2)cs1.O=C(O)CCC(=O)O [succinate] ), measured Tg (° C.) Second heating is 35

Recorded values, source patent US20140187771A1.
